- method notes: Plasma vasopressin concentrations and pharmacokinetics after IV or IM vasopressin
- Assay type: in vivo, neonatal piglets
- experimental context: pig, plasma; 0.4 IU/kg IV, 5 min after administration; anesthetized piglets, arterial blood; n = 5/group; median (IQR); read-out: Plasma vasopressin concentration
measure: level at 5 min (ng/mL)
Number in ng/mL, nothing else.

Assign level at 5 min to the following record: NC(=O)CC[C@@H]1NC(=O)[C@H](Cc2ccccc2)NC(=O)[C@H](Cc2ccc(O)cc2)NC(=O)[C@@H](N)CSSC[C@@H](C(=O)N2CCC[C@H]2C(=O)N[C@@H](CCCN=C(N)N)C(=O)NCC(N)=O)NC(=O)[C@H](CC(N)=O)NC1=O
1.74
